Experimental target: T1, purified GST-CREPT protein (microscale thermophoresis and thermal shift assay) (UniProt Q9NQG5 1-326)
T1 construct: CREPT (also named RPRD1B); it may be the same as m2 or m3; also called GST-tagged CREPT; purified CREPT proteins; source: purified
T1 sequence (looked up): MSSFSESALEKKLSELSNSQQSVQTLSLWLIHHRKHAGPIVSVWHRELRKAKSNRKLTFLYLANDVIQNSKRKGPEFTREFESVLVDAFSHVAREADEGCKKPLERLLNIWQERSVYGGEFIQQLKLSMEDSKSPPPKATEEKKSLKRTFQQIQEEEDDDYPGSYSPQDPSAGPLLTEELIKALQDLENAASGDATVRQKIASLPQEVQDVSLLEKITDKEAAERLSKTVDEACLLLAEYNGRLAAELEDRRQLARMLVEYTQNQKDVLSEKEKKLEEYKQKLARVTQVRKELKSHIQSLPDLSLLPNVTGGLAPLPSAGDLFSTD
Measurement protocol: MST; 100 nM FITC-labeled peptide kept constant, gradient dilutions of purified GST-CREPT; Microscale Thermophoresis NT.115, MO.AffinityAnalysis
Assay setup: both partners purified
Non-standard residues stand in square brackets, D forms with d. No end group written: not given here. *: point of attachment. FITC = O=C1OC2(c3ccc(O)cc3Oc3cc(O)ccc32)c2ccc(NC(=S)*)cc21; Hyp = O=C(O)[C@@H]1C[C@@H](O)CN1; Ahx = NCCCCCC(=O)O
Endpoint name: Kd (nM)

Binder	Test result
{FITC-Ahx}-IY[Hyp]AL[Ahx]KDVLSEKEKKLEEYKQKLARVRRRRK (VHL ligand IYP(OH)AL; the P is trans-4-hydroxy-L-proline; followed by the AHX linker; CREPT ligand (CL): leucine-zipper-like motif of CREPT (RPRD1B), lysine 266 to valine 286; transmembrane transport pentapeptide; Peptide-based PROTAC: VHL ligand, AHX linker, CREPT ligand, RRRRK; also called FITC-labeled PRTC; source: synthetic peptide (ChinaPeptides Co., Ltd.), purified by HPLC) [FITC-PRTC]	340
